Provide the recorded GI50 for the entries that follow.
# System: HCC 2998
# runDescription: Growth inhibition of human HCC2998 cells incubated for 48 hrs by sulforhodamine B assay
# Format: functional, cell-based
# conditionInfo: HCC 2998, 48 h, read-out: pGI50 (converted)
One number for each entry, in µM.

Answered cases to consult:
Reported GI50 for `COc1cc(Cl)cc(-c2nn(-c3cccc(NC(=O)Nc4ccc(Cl)c(C(F)(F)F)c4)c3)cc2-c2ccncc2)c1` : what is it?
2.88

# repeat for `COc1cc(Cl)cc(-c2nn(-c3cccc(NC(=O)Nc4ccc(Cl)c(Cl)c4)c3)cc2-c2ccncc2)c1`
3.16

# repeat for `COc1cc(Cl)cc(-c2nn(-c3cccc(NC(=O)Nc4cccc(C(F)(F)F)c4)c3)cc2-c2ccncc2)c1`
3.47

# repeat for `O=C(Nc1cccc(-n2cc(-c3ccncc3)c(-c3cc(O)cc(Cl)c3)n2)c1)c1ccc(N2CCOCC2)c(C(F)(F)F)c1`
1.82

Now for another entry.
Reported GI50 for `O=C(Nc1cccc(-n2cc(-c3ccncc3)c(-c3cc(O)cc(Cl)c3)n2)c1)Nc1ccc(Cl)c(C(F)(F)F)c1` : what is it?
3.89
